# Assay system: T1, AAV5 (adeno-associated virus 5, Assembled 60-mer capsid of VP1/VP2/VP3 (nested products of one cap gene), amine-coupled to a CM5 chip; the letters give one VP1 subunit only.)
# T1 construct: also called adeno-associated virus serotype 5
# Test name: SPR, AAV amine-coupled to CM5 chip
Quantity name: kon

Binder	Value measured
A4-C4 (bispecific antibody) VQLQESGGGLVQAGGSLRLSCAASGSRFSINTMGWYRQAPGKQREFVATVTRGGNTNYAESVKGRFTISRDNAKNTVYLQMNSLRPEDTAVYYCHVDEVRDSSWTTSNIWGQGTQVTVSSGGGGSGGGGSGGGGSVQLQESGGGLVQAGGSLRLSCAASGSRFSINTMGWYRQAPGKQREFVATVTRGGNTNYAESVKGRFTISRDNAKNTVYLQMNSLRPEDTAVYYCHVDEVRDSSWTTSNIWGQGTQVTVSSGGGGSGGGGSGGGGSVQLQESGGGLVQPGGSLRLSCAASGSNFRINTMGWYRQAPGKQRELVATVTRGGSTNYADSVKGRFTISRDNPKDTVYLQMNSLRPEDTAVYYCHVDEVRESSWTTSNLWGQGTQVTVSS	180000 M⁻¹ s⁻¹
A4-C8 (bispecific antibody) VQLQESGGGLVQPGGSLRLSCAASGSNFRINTMGWYRQAPGKQRELVAPVTRGGSTNYADSVKGRFTISRDNAKNTVYLQMNSLRPEDTAVYYCHVDEVRESSWTTSNLWGQGTQVTVSSGGGGSGGGGSGGGGSVQLQESGGGLVQPGGSLRLSCAASGSNFSINTMGWYRQAPGKQRELVATVTRGGDTNYADSVKGRFTISRDNAKNTVYLQMNSLRPEDTAVYYCHVDEIRESSWTTSNLWGQGTQVTVSSGGGGSGGGGSGGGGSVQLQESGGGLVQPGGSLRLSCAASGSNFSINTMGWYRQAPGKQRELVAALTRGGSTNYADSVKGRFTISRDNAKNTVYLQMNSLRPEDTAVYYCHVDEVRESSWTTSNLWGQGTQVTVSS	188000 M⁻¹ s⁻¹
A4-C6 (bispecific antibody) VQLQESGGGLVQPGGSLRLSCAASGSNFRINTMGWYRQAPGKQRELVAPVTRGGSTNYADSVKGRFTISRDNAKNTVYLQMNSLRPEDTAVYYCHVDEVRESSWTTSNLWGQGTQVTVSSGGGGSGGGGSGGGGSVQLQESGGGLVQPGGSLRLSCAASGSNFSINTMGWYRQAPGKQRELVAALTRGGSTNYADSVKGRFTISRDNAKNTVYLQMNSLRPEDTAVYYCHVDEVRESSWTTSNLWGQGTQVTVSSGGGGSGGGGSGGGGSVQLQESGGGLVQPGGSLRLSCAASGSNFSINTMGWYRQAPGKQRELVATVTRGGDTNYADSVKGRFTISRDNAKNTVYLQMNSLRPEDTAVYYCHVDEIRESSWTTSNLWGQGTQVTVSS	177000 M⁻¹ s⁻¹
A4-C5 (bispecific antibody) VQLQESGGGLVQPGGSLRLSCAASGSNFRINTMGWYRQAPGKQRELVATVTRGGSTNYADSVKGRFTISRDNPKNTVYLQMNSLRPEDTAVYYCHVDEVRESSWTTSNLWGQGTQVTVSSGGGGSGGGGSGGGGSVQLQESGGGLVQPGGSLRLSCAASGSNFSINTMGWYRQAPGKQRELVATVTRGGDTNYADSVKGRFTISRDNAKNTVYLQMNSLRPEDTAVYYCHVDEIRESSWTTSNLWGQGTQVTVSSGGGGSGGGGSGGGGSVQLQESGGGLVQPGGSLRLSCAASGSNFRINTMGWYRQAPGKQRELVATVTRGGSTNYADSVKGRFTISRDNPKNTVYLQMNSLRPEDTAVYYCHVDEVRESSWTTSNLWGQGTQVTVSS	165000 M⁻¹ s⁻¹
